Tested on: Oryza sativa
assay notes: Growth promoting activity in Oryza sativa assessed as root length at 250 ppm on day 5
Format: functional
Parameter threshold = 20 mm. Response is rule met when Activity meets or exceeds it, else rule not met.

> print(dat)
                           structure.smiles           cat
1     Cc1[nH]c2ccccc2c1Cc1c(C)[nH]c2ccccc12      rule met
2  COc1ccc2[nH]cc(Cc3c[nH]c4ccc(OC)cc34)c2c1      rule met
3  Cn1c(-c2ccccc2)c(Cc2c(-c3ccccc3)n(C)c3ccccc23)c2ccccc21      rule met
4  Cn1cc(Cc2cn(C)c3ccc([N+](=O)[O-])cc23)c2cc([N+](=O)[O-])ccc21  rule not met
5     Cc1c(Cc2c(C)n(C)c3ccccc23)c2ccccc2n1C      rule met

Reference for the values: ChEMBL document CHEMBL1140665
